- Test system: NCI/ADR-RES ovarian
- procedure details: NCI tumour cell line growth inhibition, 48 h
value kind: GI50

// known answers, use as guide
compound	test value
FC(F)(F)c1nc(N2CCCC2)ncc1-c1nnnn1-c1ccc(Cl)cc1	23 µM
CCCCC[C@H](O)/C=C/[C@@H]1[C@@H](C/C=C\CCCC(=O)O)[C@@H](O)C[C@H]1O	> 100 µM
C=CC[n+]1c(/C=C/C=C2\N(C)c3ccccc3C2(C)C)sc2ccc(OC)cc21	7.76 µM
N=C(N)c1ccc(OCc2cccc(COc3ccc(C(=N)N)cc3)c2)cc1	> 100 µM
OC(c1cccc(-n2ccc(C(F)(F)F)n2)c1)c1cnccc1NC1CCCCCC1 (centres undefined)	1.81 µM

Q: Item under review: CC(=O)OC1C(C)OC(Oc2c(C)c3c4c(c2O)[C@@H](C)CC[C@@H]4[C@@H](C)C[C@H]3C=C(C)C)C(O)C1O (some centres undefined) . Reported GI50?
Result: 2.96 µM

Q: Item under review: `O=C(Nc1ccc(Cl)c(Cl)c1)c1cccc(NC2=C(Cl)C(=O)N(Cc3ccccc3)C2=O)c1` . Reported GI50?
Result: 24.4 µM

Q: Item under review: `O=C1c2ccccc2-c2c1c1ccccc1c(=O)n2CCCCNCCCn1c2c(c3ccccc3c1=O)C(=O)c1ccccc1-2` . Reported GI50?
Result: 0.582 µM

Q: Item under review: `CCOC(=O)c1c2c(c(O)c3ccccc3c(O)n(Cc3ccc(OC)cc3)c1C)C(=O)C=CC2=O` . Reported GI50?
Result: > 100 µM
